Data provenance is patent US10981900B2.

Documented EC50 across a set of molecules
target: S1P1 receptor (Homo sapiens); experiment: S1P1 receptor agonistic activity assay (PathHunter cell strain, chemiluminescent signal detection); conditions: PathHunter cells, agonist mode, 37° C. for 90-180 minutes
Sequence (P21453 whole entry): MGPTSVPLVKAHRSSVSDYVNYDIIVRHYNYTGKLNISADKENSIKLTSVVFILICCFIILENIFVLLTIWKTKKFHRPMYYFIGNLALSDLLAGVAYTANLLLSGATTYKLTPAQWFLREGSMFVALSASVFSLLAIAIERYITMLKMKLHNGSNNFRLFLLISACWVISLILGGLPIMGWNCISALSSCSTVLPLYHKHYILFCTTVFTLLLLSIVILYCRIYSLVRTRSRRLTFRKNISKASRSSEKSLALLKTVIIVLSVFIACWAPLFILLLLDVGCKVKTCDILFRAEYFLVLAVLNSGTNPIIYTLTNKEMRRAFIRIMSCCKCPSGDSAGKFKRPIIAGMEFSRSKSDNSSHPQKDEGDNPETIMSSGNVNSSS

CC(C)Oc1ccc(-c2nc(-c3cccc4c3CCC43CC(=O)N(CCO)C3)no2)cc1Cl (centres unmarked) [Example 11]    ≤ 10 nM
CC(C)Oc1ccc(-c2nc(-c3cccc4c3CCC43COC(=O)N3CCO)no2)cc1C#N (centres unmarked) [Example 37]    10 to 100 nM
CC(C)Oc1ccc(-c2nc(-c3cccc4c3CCC43CCN(CCO)C3)no2)cc1C#N (centres unmarked) [Example 35]    ≤ 10 nM
O=C1CC2(CCc3c(-c4noc(-c5ccc(Cl)cc5)n4)cccc32)CN1CCO (centres unmarked) [Example 1]    > 100 nM
CC(C)Oc1ccc(-c2nc(-c3cccc4c3CCC43CC(=O)N(CCO)C3)no2)cc1C(F)F (centres unmarked) [Example 9]    ≤ 10 nM
CC(C)Oc1ccc(-c2nc(-c3cccc4c3CCC43CC(=O)N(CCO)C3)no2)c(C#N)c1 (centres unmarked) [Example 12]    > 100 nM
CC(C)Oc1ccc(-c2nc(-c3cccc4c3CCC43CCC(CO)N3)no2)cc1C#N (centres unmarked) [Example 32]    10 to 100 nM

Now for another entry.
q: Recorded EC50 of CC(C)Oc1ccc(-c2nc(-c3cccc4c3CCC43CC(=O)N(CCO)C3=O)no2)cc1C#N (centres unmarked) [Example 36] , please.
a: ≤ 10 nM

###

Documented clearance across a set of molecules
test: Evaluation of compounds' pharmacokinetics in SD rats in vivo (intravenous injection and oral administration); design: species or system Sprague Dawley rats; conditions: male, Sprague-Dawley, rat, plasma, intravenous, 3 mg/kg, 3 mpk, single intravenous injection and oral administration, read-out: Clearance
Provide the reading as a plain figure in mL/min/kg.

Consider the worked cases shown below.
CC(C)Oc1ccc(-c2nc(-c3cccc4c3CCC43CC(=O)N(CCO)C3)no2)cc1C#N (single isomer, unassigned) [Example 21 isomer 1]    8.65
CC(C)Oc1ccc(-c2nc(-c3cccc4c3CCC43CCN(C4CC(C(=O)O)C4)C3)no2)cc1C#N (single isomer, unassigned) [Example 47 Isomer 3]    8.81

Now for another entry.
q: Recorded clearance of CC(C)Oc1ccc(-c2nc(-c3cccc4c3CC[C@@H]4NCCO)no2)cc1C#N [Ozanimod, reference compound] , please.
a: 46.3

###

test: Evaluation of compounds' pharmacokinetics in SD rats in vivo (intravenous injection and oral administration); set-up: species or system Sprague Dawley rats; settings: male, Sprague-Dawley, rat, plasma, intravenous, 2 mg/kg, 2 mpk, single intravenous injection and oral administration, read-out: Clearance
Measured Quantity: clearance (mL/min/kg)
Provide the reading as a plain figure in mL/min/kg.

q: Recorded clearance of CC(C)Oc1ccc(-c2nc(-c3cccc4c3CCC43CC(=O)N(CCO)C3)no2)cc1C(F)F (stereo not shown) [Example 9] , please.
a: 2.52

###

target: S1P1 receptor (Homo sapiens); experiment: S1P1 receptor agonistic activity assay (PathHunter cell strain, chemiluminescent signal detection); conditions: PathHunter cells, agonist mode, 37° C. for 90-180 minutes
pEC50: −log10 of the molar value.
Measured Quantity: pEC50

Consider the worked cases shown below.
CC(C)Oc1ccc(-c2nc(-c3cccc4c3CCC43CCC(=O)N3CCO)no2)cc1C#N (stereo not shown)    7.00 to 8.00
CC(C)Oc1ccc(-c2nnc(-c3cccc4c3CCC43CC(=O)N(CCO)C3)s2)cc1C#N (stereo not shown)    ≥ 8.00
Cc1ccc(-c2nc(-c3cccc4c3CCC43CC(=O)N(CCO)C3)no2)cc1 (stereo not shown)    < 7.00
O=C1CC2(CCc3c(-c4noc(-c5ccccc5Cl)n4)cccc32)CN1CCO (stereo not shown)    < 7.00
CC(C)Oc1ccc(-c2nc(-c3cccc4c3CCC43CCN(CC(=O)O)C3)no2)cc1C#N (stereo not shown)    ≥ 8.00

q: Recorded pEC50 of CC(C)Oc1ccc(-c2nc(-c3cccc4c3CCC43CC(=O)N(CCO)C3)no2)cc1Br (stereo not shown) , please.
a: ≥ 8.00

q: Recorded pEC50 of CC(C)Oc1ccc(-c2nc(-c3cccc4c3CCC43CC(=O)N(CCO)C3)no2)cc1 (stereo not shown) , please.
a: < 7.00

q: Recorded pEC50 of N#Cc1cccc(-c2nc(-c3cccc4c3CCC43CC(=O)N(CCO)C3)no2)c1 (stereo not shown) , please.
a: < 7.00

q: Recorded pEC50 of CC(C)Oc1ccc(-c2nc(-c3cccc4c3CCC43CC(=O)N(CC(=O)O)C3)no2)cc1C#N (stereo not shown) , please.
a: ≥ 8.00

q: Recorded pEC50 of CC(C)Oc1ccc(-c2nc(-c3cccc4c3CCC43CCN(CCO)C3=O)no2)cc1C#N (stereo not shown) , please.
a: 7.00 to 8.00

q: Recorded pEC50 of COc1cccc(-c2nc(-c3cccc4c3CCC43CC(=O)N(CCO)C3)no2)c1 (stereo not shown) , please.
a: < 7.00

q: Recorded pEC50 of CC(C)Oc1ccc(-c2nc(-c3cccc4c3CCC43CC(=O)N(CCO)C3)no2)cc1C#N (stereo not shown) [Example 21 mixture] , please.
a: ≥ 8.00

q: Recorded pEC50 of CC(C)Oc1ccc(-c2nc(-c3cccc4c3CCC43CC(=O)N(CCS(C)(=O)=O)C3)no2)cc1C#N (stereo not shown) , please.
a: ≥ 8.00

q: Recorded pEC50 of CC(C)Oc1ccc(-c2nc(-c3cccc4c3CCC43CC(=O)N(CCCCC(=O)O)C3)no2)cc1C#N (stereo not shown) , please.
a: ≥ 8.00

q: Recorded pEC50 of CC(C)Oc1ccc(-c2nc(-c3cccc4c3CCC43CC(=O)N(CCO)C3)no2)cc1C#N (single isomer, unassigned) [Example 21 isomer 1] , please.
a: ≥ 8.00

q: Recorded pEC50 of CC(C)Oc1ccc(-c2nsc(-c3cccc4c3CCC43CC(=O)N(CCO)C3)n2)cc1C#N (stereo not shown) , please.
a: 7.00 to 8.00

###

test: Evaluation of compounds' pharmacokinetics in SD rats in vivo (intravenous injection and oral administration); design: species or system Sprague Dawley rats; details: male, Sprague-Dawley, rat, plasma, oral, 3 mg/kg, 3 mpk, single intravenous injection and oral administration, read-out: Bioavailability F
Measured Quantity: bioavailability (%)
Provide the reading as a plain figure in %.

CC(C)Oc1ccc(-c2nc(-c3cccc4c3CCC43CC(=O)N(CCO)C3)no2)cc1C#N (single isomer, unassigned) [Example 21 isomer 1]    100

Now for another entry.
q: Recorded bioavailability of CC(C)Oc1ccc(-c2nc(-c3cccc4c3CC[C@@H]4NCCO)no2)cc1C#N [Ozanimod, reference compound] , please.
a: 41.6

###

target: UniProt:P21453; assay: S1P1 receptor agonistic activity assay (PathHunter cell strain, chemiluminescent signal detection); settings: PathHunter cells, agonist mode, 37° C. for 90-180 minutes
Documented EC50 across a set of compounds

COCCN1CC2(CCc3c(-c4noc(-c5ccc(OC(C)C)c(C#N)c5)n4)cccc32)CC1=O (centres unmarked)    ≤ 10 nM
O=C1CC2(CCc3c(-c4noc(-c5ccc(OC(F)F)cc5)n4)cccc32)CN1CCO (centres unmarked)    > 100 nM
N#Cc1ccc(-c2nc(-c3cccc4c3CCC43CC(=O)N(CCO)C3)no2)cc1 (centres unmarked)    > 100 nM

q: Recorded EC50 of N#Cc1ccccc1-c1nc(-c2cccc3c2CCC32CC(=O)N(CCO)C2)no1 (centres unmarked) , please.
a: > 100 nM

q: Recorded EC50 of CC(C)Oc1ccc(-c2cnc(-c3cccc4c3CCC43CC(=O)N(CCO)C3)cn2)cc1C#N (centres unmarked) , please.
a: ≤ 10 nM

q: Recorded EC50 of CC(C)Oc1ccc(-c2nc(-c3cccc4c3CCC43CCN(C4CC(C(=O)O)C4)C3)no2)cc1C#N (centres unmarked) , please.
a: ≤ 10 nM

q: Recorded EC50 of CC(C)c1ccc(-c2nc(-c3cccc4c3CCC43CC(=O)N(CCO)C3)no2)cc1 (centres unmarked) , please.
a: > 100 nM

q: Recorded EC50 of CC(C)Oc1ccc(-c2ccc(-c3cccc4c3CCC43CC(=O)N(CCO)C3)s2)cc1C#N (centres unmarked) , please.
a: 10 to 100 nM

###

Documented AUC across a set of molecules
experiment: Evaluation of compounds' pharmacokinetics in SD rats in vivo (intravenous injection and oral administration); design: species or system Sprague Dawley rats; settings: male, Sprague-Dawley, rat, plasma, 3 mg/kg, 3 mpk, single intravenous injection and oral administration, read-out: Concentration integral AUC
Provide the reading as a plain figure in µM·h.

CC(C)Oc1ccc(-c2nc(-c3cccc4c3CCC43CCN(C4CC(C(=O)O)C4)C3)no2)cc1C#N (single isomer, unassigned) [Example 47 Isomer 3]    5.66

q: Recorded AUC of CC(C)Oc1ccc(-c2nc(-c3cccc4c3CCC43CC(=O)N(CCO)C3)no2)cc1C#N (single isomer, unassigned) [Example 21 isomer 1] , please.
a: 12.6

q: Recorded AUC of CC(C)Oc1ccc(-c2nc(-c3cccc4c3CC[C@@H]4NCCO)no2)cc1C#N [Ozanimod, reference compound] , please.
a: 1.12
